test: yeast display, Sf9 membrane polyspecificity reagent, FACS + sequencing; frameworks hold sequencing errors
assay-metric: polyreactivity (PSR sort gate)

[
  {
    "sequence-chain": "QVQLVESGGGLVQAGGSLRLSCAASGITFGRNAMGWYRQAPGKERELVAAISRGGSTNYADSVKGRFTISRDNAKNTVYLQMNSLKPEDTAVYYGNARSWPHGSWIPIHRRSGYWGQGTQVTVSS",
    "polyreactivity (PSR sort gate)": "high polyreactivity"
  },
  {
    "sequence-chain": "QVQLLESGGGLVQAGGSLRLSCDASGSISYHNAMGWYRQAPGKERELVASITSGSSTYYADSVKGSFTISRDNAKNTVYLQMNSLKPEDTAVYYCAAQDYSPYERGRDYWGQGTQVTVSS",
    "polyreactivity (PSR sort gate)": "low polyreactivity"
  },
  {
    "sequence-chain": "QVQLVESGGGLVQAGGSLRLSCAASGSIFENYAMGWYRQAPGKERELVAAISSSGDSTYYADSVKGRFTISRDNAKNTVYLQMNSLKPEDTAVYYCAAEISLSRSDRIESYDYWGQGTQVTVSS",
    "polyreactivity (PSR sort gate)": "low polyreactivity"
  },
  {
    "sequence-chain": "QVQLVESGGGLVQAGGSLRLSCAASGSTFDDNAMGWYRQAPGKERELVASINYSTGSTYYADSVKGRFTISRDNAKNTVYLQMNSLKPEDTAVYYCAKDLRRYLSWWYRYPYDYWGQGTQVTVSS",
    "polyreactivity (PSR sort gate)": "low polyreactivity"
  }
]

Ask: Quick one: polyreactivity (PSR sort gate) for QVQLVESGGGLVQAGGSLRLSCAASGSIFSSYAMGWYRQAPGKERELVAAISGSGGSTFYADSVKGRFTISRDNAKNTVYLQMNSLKPEDTAVYYCAARYYWYGRAGKKHASYYYWGQGTQVTVSS ?
Result: high polyreactivity

---

assay: yeast display, Sf9 membrane polyspecificity reagent, FACS + sequencing; frameworks hold sequencing errors
assay-metric: polyreactivity (PSR sort gate)

[
  {
    "sequence-chain": "QVQLVESGGGLVQAGGSLRLSCAASGSTFRVNAMGWYRQAPGKERELVAAISSSGGITYYADSVKGRFTISRDNAKNTVYLQMNSLKPEDTAVYYCAKGTVIHVLYDYWGQGTQVTVSS",
    "polyreactivity (PSR sort gate)": "low polyreactivity"
  },
  {
    "sequence-chain": "QVQIVESGGGLVQAGGSLRVSCAASGFTFDENAMGWYRQAPGINYSGASTYYADSVKGRFTISRDNAKNTVYLQMNSVKQDDTAVYYCAAEVVAQMNYWGQGTQVTVSS",
    "polyreactivity (PSR sort gate)": "low polyreactivity"
  },
  {
    "sequence-chain": "QVQLVESGGGLVQAGGSLRLSCAASGGIFKYNAMGWYRTAPGKERELVAAIRSSGSTNYADSVKGRFTISRDNAKNTVYLQMNSLKPEETAVYYCNVAYGLQPYDYWGQGTQVNVSS",
    "polyreactivity (PSR sort gate)": "high polyreactivity"
  },
  {
    "sequence-chain": "QVQLVDSGGGLVQAGGSLRLSCAASGSILVYYAMGWYRQAPGKERELVAAISSGGSTNYADSVKGRFTISRDNANNTVYLKINSLKPEDTAVYYCAKPDRTGWLEGDYWGQGTQVSVSS",
    "polyreactivity (PSR sort gate)": "low polyreactivity"
  },
  {
    "sequence-chain": "QVQLVESGGGLVQAGGRLRLSCAASGRTFTYFAMGWYRKAPGKERELVAAISWDDDSTYYADSVKGRFTISRDYAKNTVYLQMNSLKPEDTAVYYCAASYYRQSGEYDYWGQGTQVTVSS",
    "polyreactivity (PSR sort gate)": "low polyreactivity"
  }
]

Ask: Quick one: polyreactivity (PSR sort gate) for QVQLVESGGGLVQAGGSLRLSCAASGNIFTLNTSGCYRQAPGKERELVARITSGDRKYYADSVKGRFTISRDNAKNTVYLQMNSLKPEDTAVYYCAARRPAYYSFWVTGYNYWGQGTQVTVSS ?
Result: high polyreactivity

Ask: Quick one: polyreactivity (PSR sort gate) for QVQLVESGGGLVQAGGSLRLSCAASGSTFVYYAMGWSRQAPGKERELVAAIKRSGTRTYYADSVKGRFTISRDNAKNTVYLQMNSLKPEDTAVYYCANAVQGKYGYWGQGTQVTVSS ?
Result: high polyreactivity

Ask: Quick one: polyreactivity (PSR sort gate) for QVQLVESGGGLVQAGGSLRLSCAASGFILPHNAMGWYRQAPGKERELVAAISGSGGSTYYADSVKGRFTISRDNAKNTVYLQMNSLKPEDTAFYYCNADVWVYPYDYWGQGTQVTVSS ?
Result: low polyreactivity

Ask: Quick one: polyreactivity (PSR sort gate) for QVQLVESGGGLVQAGGSLRLSCAASGSIFHRNAMGWYRQAPGKERELVATISSSTGSTNYADSVKGRFTISRDNAKNTVYLQMNSLKPEDTAVYYCAAAPHRHSWYYTRHPYFGMDYWGQGTQVTVSS ?
Result: low polyreactivity

Ask: Quick one: polyreactivity (PSR sort gate) for QVQLVESGGGLVQAGGSLRLSCAASGIIYYENTMGWYRQAPGKERELVAPINSGGSTYYADCVKGRFTISRDNAKNTVYLQMNSLKPEDTAVYYCAADDYSGLYYSSTYRYEYWGQGTQVTVSS ?
Result: low polyreactivity

Ask: Quick one: polyreactivity (PSR sort gate) for QVQLVESGGGLVQAGGSLRLSCAASGRIFAHYAMGWYRQAPGKERELVADIRQSGGRTYYADSVKGRFTISRDNAKNTVYLKMNSLKPEDTAVYFCATDYGSWGDYSGKYDYWGQGTQVTVSS ?
Result: low polyreactivity
